molecular target: DRB1*1501 (DR2w2β1) (Homo sapiens, UniProt P01903+P01911); construct: expressed in transfected cells; host or cells: L466.1 (fibroblasts); test: HLA class II peptide binding assay
No end group written: not given here.
measured.parameter: IC50

sequence.data | result
PDSIQDSLKESRKLN [Peptide 35.0171] | 2.29 µM

###

molecular target: DRB1*0101 (DR1) (Homo sapiens, UniProt P01903+P01911, A100R/D57E/F55L/F60I/F76Y/I96L/L162R/M171V/P40L/Q125E/R42F/V115G/Y59C); construct: endogenous in cells; host or cells: LG2; test: HLA class II peptide binding assay; conditions: Table XIXb, Malaria Super Motif Peptides With Binding Data; DR1
Sequence (P01903 26-254 partner, other chains not shown): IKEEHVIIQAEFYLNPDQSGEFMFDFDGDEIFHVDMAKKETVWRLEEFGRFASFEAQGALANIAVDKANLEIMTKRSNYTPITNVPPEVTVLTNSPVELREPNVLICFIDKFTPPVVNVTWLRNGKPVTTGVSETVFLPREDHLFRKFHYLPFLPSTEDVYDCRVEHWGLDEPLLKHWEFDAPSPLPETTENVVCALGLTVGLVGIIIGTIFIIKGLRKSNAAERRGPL
Each record is given y if its reported DR1 binding data is strictly below 0.01. Records at or above 0.01 are given n.

sequence.data | category
WVNHAVPLA | n
LVTVFLIFF | y
VNDFQISKY | y
LIFFDLFLV | y
LAILSVSSF | n
VSTVLLGGV | n
VDLYLLMDC | y
IAGGLALLA | n
YDNAGINLY | y
YQNNIVDEI | y
LAMKLIQQL | y
